# TARGET OF ASSAY: Ks-Amt5 (ammonium sensor/transducer) (Candidatus Kuenenia stuttgartensis, UniProt Q1Q357)
# Sequence (Q1Q357 1-679): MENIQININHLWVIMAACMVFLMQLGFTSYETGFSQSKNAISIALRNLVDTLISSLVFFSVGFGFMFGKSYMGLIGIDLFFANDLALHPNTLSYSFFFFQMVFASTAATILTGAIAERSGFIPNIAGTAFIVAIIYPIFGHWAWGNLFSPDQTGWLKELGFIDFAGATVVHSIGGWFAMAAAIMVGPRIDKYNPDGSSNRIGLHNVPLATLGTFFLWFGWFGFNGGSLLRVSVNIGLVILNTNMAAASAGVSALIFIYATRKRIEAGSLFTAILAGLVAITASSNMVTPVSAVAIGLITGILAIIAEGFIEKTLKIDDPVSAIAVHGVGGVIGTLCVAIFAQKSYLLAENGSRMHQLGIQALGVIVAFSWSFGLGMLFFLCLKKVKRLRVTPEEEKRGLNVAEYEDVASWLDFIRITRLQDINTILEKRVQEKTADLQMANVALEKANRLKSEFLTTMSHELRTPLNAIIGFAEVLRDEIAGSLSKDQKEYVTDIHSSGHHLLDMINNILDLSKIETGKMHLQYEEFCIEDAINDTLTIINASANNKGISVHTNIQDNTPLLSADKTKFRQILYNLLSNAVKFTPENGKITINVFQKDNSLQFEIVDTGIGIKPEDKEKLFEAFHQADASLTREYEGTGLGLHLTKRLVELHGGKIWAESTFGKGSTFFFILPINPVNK
# EXPERIMENT SUMMARY: biochemical
# Design: gene amtb
RESULT TYPE: pKd
// field semantics: pKd = negative decimal log of concentration (mol/L)

# return recorded pKd for entry N 4.39

====

# TARGET OF ASSAY: Ks-Amt5 (ammonium sensor histidine kinase, HK domain) (Candidatus Kuenenia stuttgartensis, UniProt Q1Q357)
# Construct: gene amtb; Ks-Amt5^426–679 (soluble HK domain)
# Sequence (Q1Q357 entry or part of it): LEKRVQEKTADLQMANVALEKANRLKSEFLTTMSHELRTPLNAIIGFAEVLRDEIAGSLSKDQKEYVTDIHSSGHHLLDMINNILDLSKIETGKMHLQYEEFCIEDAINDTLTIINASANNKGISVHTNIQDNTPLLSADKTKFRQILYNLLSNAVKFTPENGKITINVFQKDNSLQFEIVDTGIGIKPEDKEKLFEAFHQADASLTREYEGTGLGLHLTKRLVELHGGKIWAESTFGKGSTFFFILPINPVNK
# EXPERIMENT SUMMARY: isothermal titration calorimetry
# Type: binding
RESULT TYPE: Kd (µM)
Respond numerically; units are µM and should not be typed.

Retrieve Kd measured for Nc1ncnc2c1ncn2[C@@H]1O[C@H](CO[P@](=O)(O)O[P@](=O)(O)O[P@@](=O)(O)S)[C@@H](O)[C@H]1O and print it. 36.7
